assayTarget: PD-1/PD-L1 interaction (Homo sapiens)
Construct: expressed in transfected cells; host or cells: CHO cells (aAPC-PD-L1) co-cultured with Jurkat cells overexpressing PD-1 and an NFAT-luciferase reporter
testName: PD-1/PD-L1 NFAT reporter co-culture assay
Format: cell-based
conditionSet: Jurkat PD-1 NFAT-luciferase cells co-cultured with aAPC-PD-L1 CHO cells, 6 hrs at 37° C.; read-out: EC50 NFAT Luciferase
assayReadout: log10 of EC50 (log10 of the value in nM)
Response schema: value (number) is log10 of EC50 in units of nM.

Report log10 of EC50 under test system PD-1/PD-L1 interaction (Homo sapiens) for `COc1nc(-c2cccc(-c3cccc(-c4ccc5c(CNC[C@@H]6CCC(=O)N6)cc(=O)n(C)c5c4)c3Cl)c2Cl)ccc1CNC[C@@H]1CCC(=O)N1` . 2.20

Find the measured log10 of EC50 of `COc1nc(O[C@H]2CCc3c(-c4cccc(-c5ccc(CNC[C@@H]6CCC(=O)N6)c(F)c5)c4Cl)cccc32)c(Br)cc1CNC[C@@H]1CCC(=O)N1` with PD-1/PD-L1 interaction (Homo sapiens) as test system. 1.92

Return reported log10 of EC50 for target or system PD-1/PD-L1 interaction (Homo sapiens), item `COc1nc(OCc2cccc(-c3cccc(COc4nc(OC)c(CN(CCCC(N)=O)CC(=O)O)cc4Br)c3C)c2C)c(Br)cc1CN(CCCC(N)=O)CC(=O)O` . 2.89

Give PD-1/PD-L1 interaction (Homo sapiens) log10 of EC50 for the following molecule: `CCNCc1cc(Cl)c(OCc2cccc(-c3cccc(COc4cc(OCc5cncc(C#N)c5)c(CNCC)cc4Cl)c3C)c2C)cc1OCc1cncc(C#N)c1` 2.81

Provide PD-1/PD-L1 interaction (Homo sapiens) log10 of EC50 reading for `CCOC(=O)CNCc1cc(Cl)c(O[C@H]2CCc3c(-c4cccc5c4CC[C@@H]5Oc4nc(OC)c(CNCC(=O)OCC)cc4Cl)cccc32)nc1OC` . 2.98

Supply log10 of EC50 measured with PD-1/PD-L1 interaction (Homo sapiens) for `Cc1c(COc2cc(OCc3cncc(C#N)c3)c(CNC[C@@H](O)CC(=O)O)cc2Cl)cccc1-c1cccc(-c2ccn3cc(CNC[C@@H](O)CC(=O)O)nc3c2)c1C` . 2.85

Find log10 of EC50 for `Cc1c(COc2cc(OCc3cncc(C#N)c3)c(CNC[C@@H](O)CC(=O)O)cc2Cl)cccc1-c1cccc(-c2ccc(CN(C)C)cc2)c1Br` on PD-1/PD-L1 interaction (Homo sapiens) and write it down. 2.14

* * *

assayTarget: PD-1/PD-L1 interaction (Homo sapiens, UniProt Q9NZQ7)
Construct: expressed in transfected cells; host or cells: CHO cells (aAPC-PD-L1) co-cultured with Jurkat cells overexpressing PD-1 and an NFAT-luciferase reporter
Sequence (Q9NZQ7 19-290): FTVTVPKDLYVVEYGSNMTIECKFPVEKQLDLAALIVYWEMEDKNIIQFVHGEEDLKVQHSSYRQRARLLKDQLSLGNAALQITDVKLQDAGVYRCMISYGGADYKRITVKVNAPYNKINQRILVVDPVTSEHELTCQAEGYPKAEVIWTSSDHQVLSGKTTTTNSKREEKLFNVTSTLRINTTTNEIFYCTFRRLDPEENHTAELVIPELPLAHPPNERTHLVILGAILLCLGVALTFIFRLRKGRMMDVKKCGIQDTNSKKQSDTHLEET
testName: PD-1/PD-L1 NFAT reporter co-culture assay
Assay type: cell-based
conditionSet: Jurkat PD-1 NFAT-luciferase cells co-cultured with aAPC-PD-L1 CHO cells, 6 hrs at 37° C.; read-out: EC50 NFAT Luciferase
Label MET when EC50 < 3 µM; otherwise NOT MET.

Regarding `COc1nc(OCc2cccc(-c3cccc(COc4nc(OC)c([C@@H]5NCC[C@@H]5C(=O)O)cc4Cl)c3C)c2C)c(Cl)cc1[C@@H]1NCC[C@@H]1C(=O)O` , kindly confirm whether its EC50 is beneath 3 µM. NOT MET

In the record for `COc1nc(OCc2cccc(-c3cccc(COc4ccc(CNCCO)c(OC)n4)c3C#N)c2C)ccc1CNCCO` , is EC50 less than 3 µM? MET

Does `Cc1c(COc2cc(OCc3cncc(C#N)c3)c(CNC[C@@H](O)CC(=O)O)cc2Br)cccc1-c1cccc(COc2cc(OCc3cncc(C#N)c3)c(CN3C[C@@H](O)CC3=O)cc2Br)c1C` have EC50 strictly under 3 µM? MET

Regarding Cc1c(COc2cc(OCc3cncc(C#N)c3)c(CNCC(C)(O)CC(=O)O)cc2Cl)cccc1-c1cccc(COc2cc(OCc3cncc(C#N)c3)c(CNCC(C)(O)CC(=O)O)cc2Cl)c1C (stereo not shown) , kindly confirm whether its EC50 is beneath 3 µM. MET

API: query returns whether the compound falls strictly under 3 µM in EC50. Query: `COc1nc(OCc2cccc(-c3cccc(COc4nc(OC)c(CNC[C@@H](O)CC(=O)O)cc4S(C)(=O)=O)c3C)c2C)c(S(C)(=O)=O)cc1CNC[C@@H](O)CC(=O)O` NOT MET

Does the reported EC50 of the following compound sit strictly below 3 µM? `CC(C)(NCc1cc(Cl)c(O[C@H]2CCc3c(-c4cccc(-c5ccc(OCCN6CC[C@@H](O)C6)cc5)c4Cl)cccc32)nc1OCc1cncc(S(C)(=O)=O)c1)C(=O)O` MET

Does the reported EC50 of `COc1nc(-c2cccc(-c3cccc4c3CC[C@@H]4Oc3nc(OC)c(CN[C@@](C)(CO)C(=O)O)cc3Cl)c2Cl)ccc1CNC[C@@H]1CCC(=O)N1` stay below 3 µM? MET

* * *

assayTarget: PD-1/PD-L1 interaction (Homo sapiens)
Construct: expressed in transfected cells; host or cells: CHO cells (aAPC-PD-L1) co-cultured with Jurkat cells overexpressing PD-1 and an NFAT-luciferase reporter
testName: PD-1/PD-L1 NFAT reporter co-culture assay
Format: cell-based
conditionSet: Jurkat PD-1 NFAT-luciferase cells co-cultured with aAPC-PD-L1 CHO cells, 6 hrs at 37° C.; read-out: EC50 NFAT Luciferase
assayReadout: EC50

Tell me measured EC50 for `COc1nc(-c2cccc(-c3cccc(-c4ccn5cc(CN6CC7(CCC(=O)N7)C6)nc5c4)c3Cl)c2Cl)ccc1CN1CC2(CCC(=O)N2)C1` please. ≥ 50000 nM

Determine from records and report EC50 for `N#Cc1cncc(COc2nc(OCc3cccc(-c4cccc(-c5ccc6c(c5)C[C@@H](N)C6)c4Cl)c3Cl)c(Br)cc2CNC[C@@H](O)CC(=O)O)c1` 152 nM

State its EC50 for this compound: `COc1nc(O[C@H]2CCc3c(-c4cccc(-c5ccc(CNCCO)cc5)c4Cl)cccc32)c(Cl)cc1CNCCO` ≥ 50000 nM

Entry `COc1nc(OCc2cccc(-c3cccc(COc4nc(OC)c(CNC[C@@H](O)CC(=O)O)cc4Br)c3C#N)c2Cl)c(Br)cc1CNC[C@@H](O)CC(=O)O` needs its EC50 filled in; supply it. 162 nM

* * *

assayTarget: PD-1/PD-L1 interaction (Homo sapiens)
Construct: expressed in transfected cells; host or cells: CHO cells (aAPC-PD-L1) co-cultured with Jurkat cells overexpressing PD-1 and an NFAT-luciferase reporter
testName: PD-1/PD-L1 NFAT reporter co-culture assay
Assay type: cell-based
conditionSet: Jurkat PD-1 NFAT-luciferase cells co-cultured with aAPC-PD-L1 CHO cells, 6 hrs at 37° C.; read-out: EC50 NFAT Luciferase
assayReadout: EC50 (nM)
Respond with the bare value in nM.

# return recorded EC50 for input `Cc1c(COc2cc(OCc3cncc(C#N)c3)c(CNC[C@@H](O)CC(=O)O)cc2Cl)cccc1-c1cccc(-c2ccc(CNC[C@@H]3CCC(=O)N3)cc2)c1C` 72

Identify measured EC50 associated with `COc1nc(OCc2cccc(-c3cccc(COc4nc(OC)c(CN5CC[C@H]5C(=O)O)cc4Br)c3C)c2C)c(Br)cc1CN1CC[C@H]1C(=O)O` 1250

// Input: `Cc1c(COc2cc(OCc3cncc(C#N)c3)c(CN3CC[C@@H](O)C3)cc2Cl)cccc1-c1cccc(-c2ccc(OCCNC[C@@H](O)CC(=O)O)cc2)c1C` . Output its EC50 only. 240

Please report the measured EC50 for `COc1nc(O[C@H]2CCc3c(-c4cccc5c4CC[C@@H]5Oc4nc(OC)c(CNCC(=O)O)cc4Cl)cccc32)ccc1CNCC(=O)O` 516

Kindly indicate its recorded EC50. Item: `Cc1c(-c2ccc(OCCNC[C@@H](O)CC(=O)O)cc2)cccc1-c1cccc2c1CC[C@@H]2Oc1nc(OCCCC#N)c(CNC[C@@H](O)CC(=O)O)cc1Br` 114

Please supply the value of reported EC50 for the item Cc1c(COc2cc(OCc3cncc(C#N)c3)c(CNC[C@@H](O)CC(=O)O)cc2Cl)cccc1-c1cccc(-c2ccc3c(c2)CCC3N(C)C)c1C (some centres unmarked) 219

In one line, give reported EC50 of the entry `COc1nc(-c2cccc(-c3cccc(NC(=O)c4ccc(C5=NCCN5)cn4)c3C)c2Cl)ccc1C1=NCCN1` . 332

Give reported EC50 value for `COc1nc(-c2cccc(-c3cccc(COc4nc(OCc5cncc(C#N)c5)c(CN5CCCC[C@H]5C(=O)O)cc4Br)c3Cl)c2Cl)ccc1C1=NCCN1` 187

* * *

assayTarget: PD-L1 (Homo sapiens)
Construct: determine if they can specifically dimerize the extracellular domains of PD-L1
Sequence (Q9NZQ7 19-238 limits assumed): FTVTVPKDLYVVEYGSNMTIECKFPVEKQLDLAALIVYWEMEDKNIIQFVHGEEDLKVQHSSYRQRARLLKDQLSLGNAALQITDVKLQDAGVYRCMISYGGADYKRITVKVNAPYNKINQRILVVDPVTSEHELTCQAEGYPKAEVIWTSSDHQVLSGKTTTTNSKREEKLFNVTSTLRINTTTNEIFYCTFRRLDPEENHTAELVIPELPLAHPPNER
Sequence (Q9NZQ7 19-238 limits assumed): as above
testName: PD-L1/PD-L1 dimerization biochemical protein-protein interaction assay (ALPHA)
Assay type: binding
conditionSet: compound-induced PD-L1 dimerization, head prints '1 nM' (0.5 nM His-tagged PD-L1 and 0.5 nM FLAG-tagged PD-L1), read-out: AC50 PDL1 Dimer Alpha 1 nM
Please respond with reported AC50 for every item in the list.

Find the measured AC50 of `CC(C)(NCc1cc(Cl)c(O[C@H]2CCc3c(-c4cccc(-c5ccc(S(N)(=O)=O)cc5)c4Cl)cccc32)nc1OCc1cncc(C#N)c1)C(=O)O` and report it. ≥ 10 µM

For the molecule `COc1nc(OCc2cccc(-c3cccc(COc4nc(OC)c(C5=NCCN5)cc4Cl)c3C)c2C)c(Cl)cc1C1=NCCN1` , report AC50. 0.369 µM

Using known records, supply AC50 for `COc1nc(-c2cccc(-c3cccc(-c4ccc5c(c4)[C@H](N)CC5)c3Cl)c2Cl)ccc1C1=NCCN1` ≥ 10 µM
